Items are presented alongside their recorded Anti-CD28 Fab signal.
Test system: Anti-CD28 Fab (SEQ ID NOs: 202, 203)
Sequence (VH, as listed by the source, chain 1 of 2): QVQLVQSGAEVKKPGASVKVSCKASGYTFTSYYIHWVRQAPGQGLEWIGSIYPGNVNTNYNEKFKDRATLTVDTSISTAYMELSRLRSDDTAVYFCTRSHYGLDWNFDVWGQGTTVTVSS
Sequence (VL, as listed by the source, chain 2 of 2): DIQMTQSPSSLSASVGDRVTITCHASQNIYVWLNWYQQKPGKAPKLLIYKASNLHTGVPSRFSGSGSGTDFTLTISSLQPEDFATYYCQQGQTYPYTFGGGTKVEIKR
Experiment description: phage binding ELISA on captured Fab;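 further: clonal phage supernatants added briefly to wells pre-incubated with CD28 antigen or with blocking buffer only, then washed, bound phage read by ELISA using HRP-coupled anti-M13 antibody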
Measured endpoint: Anti-CD28 Fab signal

Binder: YCEGHAPEYIGKCL [Phage-44]
Measured result: 2.1
//
Binder: YCDGHSAEYMAKCL [Phage-137]
Measured result: 2.23
//
Binder: YCDGHSQEYMMKCL [Phage-111]
Measured result: 2.28
//
Binder: WCWDYREWVPMTCP [Phage-8]
Measured result: 2.3
//
Binder: YCDGHSREYIAKCL [Phage-106]
Measured result: 2.29
//
Binder: YCDGHSAEHMAKCL [Phage-54]
Measured result: 2.41
//
Binder: YCDGHEPQYMLKCL [Phage-88]
Measured result: 2.32
//
Binder: YCDGHLPQYMEKCL [Phage-47]
Measured result: 2.47
//
Binder: YCAGHAWQYINKCL [Phage-13]
Measured result: 0.64
//
Binder: YCDGHVPEYMAKCL [Phage-108]
Measured result: 2.29
//
Binder: YCEGHTAEYMQKCL [Phage-67]
Measured result: 2.38
//
Binder: YCEGHSSEYMLKCL [Phage-103]
Measured result: 2.3
